system: human PI3Kα protein (Homo sapiens)
Construct: purchased Carna Biosciences, Inc; host or cells: baculovirus expression system
assayDetails: PI3Kα enzyme assay (ADP-Glo)
Assay type: biochemical
runConditions: 4.5 nmol/L PI3Kα, PIP2 50 μmol/L, ATP 100 μmol/L; read-out: PI3Kα enzyme inhibitory activity
pIC50: −log10 of the molar value.
Form field: pIC50 (one value per entry).

Completed entries (count: 3):
- molecule: "CCCCc1nn(C)cc1-c1cnc2ccc(Nc3nnc(C4CCCC4)s3)nc2c1 [Example 0115]"
  valueReported: "> 6.00"
- molecule: "c1n[nH]cc1Nc1cnc2ccc(Nc3nnc(C4CCCC4)s3)nc2c1 [Example 0175]"
  valueReported: "> 6.00"
- molecule: "CC(=O)N1CCCC(Nc2cnc3ccc(Nc4nnc(C5CCCC5)s4)nc3c2)C1 (stereo not drawn) [Example 0076]"
  valueReported: "> 6.00"

Incoming: Entry c1nc2ccc(Nc3cc(C4CCOC4)cnn3)nc2cc1-c1cnn(CCCN2CCCC2)c1 (stereo not drawn) [Example 0019] : reported pIC50 = ?
Outgoing: > 6.00

Incoming: Similarly, CN(C)Cc1nnc(Nc2ccc3ncc(-c4cnn(C)c4)cc3n2)s1 [Example 0166] ?
Outgoing: 5.00 to 6.00

Incoming: Similarly, CC(C)Oc1cncc(Nc2cnc3ccc(Nc4nnc(C5CCCC5)s4)nc3c2)c1 [Example 0100] ?
Outgoing: 5.00 to 6.00

----------
system: GST fusion human ERK2 protein (Homo sapiens)
Construct: purchased Carna Biosciences, Inc; host or cells: E. coli expression system
Sequence (P28482 whole entry, the tested form may be a part): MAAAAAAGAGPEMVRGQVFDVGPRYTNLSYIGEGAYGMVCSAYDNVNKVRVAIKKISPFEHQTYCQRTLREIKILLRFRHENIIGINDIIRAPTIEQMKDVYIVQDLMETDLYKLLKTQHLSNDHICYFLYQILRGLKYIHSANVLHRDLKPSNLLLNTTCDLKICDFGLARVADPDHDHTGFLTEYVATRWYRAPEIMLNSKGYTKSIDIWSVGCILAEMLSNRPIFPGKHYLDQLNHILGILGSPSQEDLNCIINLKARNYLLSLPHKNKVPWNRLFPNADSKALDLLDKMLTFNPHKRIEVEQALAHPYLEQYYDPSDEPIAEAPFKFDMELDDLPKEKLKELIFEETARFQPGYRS
assayDetails: ERK2 enzyme assay (2)
Assay type: biochemical
runConditions: ERK2 enzyme assay (2); read-out: ERK2 enzyme inhibitory activity (2)
Protocol: In an ERK2 enzyme assay, GLUTATHIONE S-TRANSFERASE (GST) FUSION HUMAN ERK2 PROTEIN (manufactured by Carna Biosciences, Inc.), which was produced by using an E. coli expression system, was used. […] The inhibitory activities of the compounds were evaluated using IC50 (50% inhibitory concentration). The IC50 was calculated using XLFIT (trade name, manufactured by ID Business Solutions).
measuredQuantity: IC50

- molecule: "Cn1cc(-c2cnc3ccc(Nc4nnc(CS(C)(=O)=O)s4)nc3c2)cn1"
  IC50: "< 1000 nM"
- molecule: "Cc1c(-c2cnc3ccc(Nc4nnc(C(C)C)s4)nc3c2)cnn1CCCN1CCCC1"
  IC50: "< 1000 nM"

Incoming: Entry "OCCCn1cc(-c2cnc3ccc(Nc4nnc(C5CCCC5)s4)nc3c2)cn1" : reported IC50 = ?
Outgoing: < 1000 nM

Incoming: Similarly, "Cc1nn(C)cc1-c1cnc2ccc(Nc3cc(C(C)C)no3)nc2c1" ?
Outgoing: 1000 to 10000 nM

----------
Form field: pIC50 (one value per entry).
system: human PI3Kα protein (Homo sapiens)
Construct: purchased Carna Biosciences, Inc; host or cells: baculovirus expression system
assayDetails: PI3Kα enzyme assay (ADP-Glo)
Format: biochemical
runConditions: read-out: PI3Kα enzyme inhibitory activity
Protocol: In a PI3Kα enzyme assay, a product (manufactured by Carna Biosciences, Inc.) obtained by biotinylating a human PI3Kα protein produced by using a baculovirus expression system was used. […] The inhibitory activities of the compounds were evaluated using IC50 (50% inhibitory concentration). The IC50 was calculated using XLFIT (trade name, manufactured by ID Business Solutions).
pIC50: −log10 of the molar value. Where a name gives a salt, the structure may show the parent alone.

Completed entries (count: 3):
- compound: "CC(C)c1cnnc(Nc2ccc3ncc(Nc4cncnc4)cc3n2)c1"
  pIC50: "> 6.00"
- compound: "CNc1cc(-c2cnc3ccc(Nc4cc(C(C)C)cnn4)nc3c2)ccn1 [Example 0423, hydrochloride]"
  pIC50: "> 6.00"
- compound: "CCN(CC)CCCn1cc(-c2cnc3ccc(Nc4cc(C(C)C)cnn4)nc3c2)cn1"
  pIC50: "> 6.00"

Please examine the following record next.
Incoming: Entry "Cc1n[nH]c(C)c1-c1cnc2ccc(Nc3nnc(C4CCCC4)s3)nc2c1" : reported pIC50 = ?
Outgoing: 5.00 to 6.00

----------
system: human PI3Kα protein (Homo sapiens, UniProt P42336)
Construct: purchased Carna Biosciences, Inc; host or cells: baculovirus expression system
Sequence (P42336 whole entry): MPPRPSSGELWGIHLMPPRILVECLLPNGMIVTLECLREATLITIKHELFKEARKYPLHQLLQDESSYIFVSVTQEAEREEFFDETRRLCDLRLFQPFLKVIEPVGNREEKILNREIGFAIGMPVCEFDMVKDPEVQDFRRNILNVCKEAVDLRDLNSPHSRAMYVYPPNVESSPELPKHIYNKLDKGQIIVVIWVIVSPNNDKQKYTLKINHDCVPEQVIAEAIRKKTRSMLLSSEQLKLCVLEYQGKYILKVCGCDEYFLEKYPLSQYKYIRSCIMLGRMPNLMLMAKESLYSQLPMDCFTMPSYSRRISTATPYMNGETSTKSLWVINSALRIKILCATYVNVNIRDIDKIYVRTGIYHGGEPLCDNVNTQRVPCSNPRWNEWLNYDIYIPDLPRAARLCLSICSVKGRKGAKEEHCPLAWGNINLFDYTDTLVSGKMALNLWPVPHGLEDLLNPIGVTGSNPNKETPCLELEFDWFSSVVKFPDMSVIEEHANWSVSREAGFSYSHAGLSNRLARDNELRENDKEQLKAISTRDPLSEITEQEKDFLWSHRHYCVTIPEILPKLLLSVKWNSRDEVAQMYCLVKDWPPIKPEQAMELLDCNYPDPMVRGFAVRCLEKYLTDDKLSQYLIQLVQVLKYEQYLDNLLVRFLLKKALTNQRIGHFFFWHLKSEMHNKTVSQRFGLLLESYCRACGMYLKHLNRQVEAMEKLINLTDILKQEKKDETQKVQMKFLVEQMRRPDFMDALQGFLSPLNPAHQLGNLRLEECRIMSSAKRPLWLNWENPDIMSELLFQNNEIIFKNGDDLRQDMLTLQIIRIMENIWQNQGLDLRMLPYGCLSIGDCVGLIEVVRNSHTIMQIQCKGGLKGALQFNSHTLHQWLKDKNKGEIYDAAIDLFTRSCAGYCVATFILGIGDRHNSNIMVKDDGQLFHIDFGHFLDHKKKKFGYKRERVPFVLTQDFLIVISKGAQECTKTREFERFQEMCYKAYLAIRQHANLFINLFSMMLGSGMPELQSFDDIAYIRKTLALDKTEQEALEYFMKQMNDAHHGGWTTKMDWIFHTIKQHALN
Sequence (P27986 whole entry partner): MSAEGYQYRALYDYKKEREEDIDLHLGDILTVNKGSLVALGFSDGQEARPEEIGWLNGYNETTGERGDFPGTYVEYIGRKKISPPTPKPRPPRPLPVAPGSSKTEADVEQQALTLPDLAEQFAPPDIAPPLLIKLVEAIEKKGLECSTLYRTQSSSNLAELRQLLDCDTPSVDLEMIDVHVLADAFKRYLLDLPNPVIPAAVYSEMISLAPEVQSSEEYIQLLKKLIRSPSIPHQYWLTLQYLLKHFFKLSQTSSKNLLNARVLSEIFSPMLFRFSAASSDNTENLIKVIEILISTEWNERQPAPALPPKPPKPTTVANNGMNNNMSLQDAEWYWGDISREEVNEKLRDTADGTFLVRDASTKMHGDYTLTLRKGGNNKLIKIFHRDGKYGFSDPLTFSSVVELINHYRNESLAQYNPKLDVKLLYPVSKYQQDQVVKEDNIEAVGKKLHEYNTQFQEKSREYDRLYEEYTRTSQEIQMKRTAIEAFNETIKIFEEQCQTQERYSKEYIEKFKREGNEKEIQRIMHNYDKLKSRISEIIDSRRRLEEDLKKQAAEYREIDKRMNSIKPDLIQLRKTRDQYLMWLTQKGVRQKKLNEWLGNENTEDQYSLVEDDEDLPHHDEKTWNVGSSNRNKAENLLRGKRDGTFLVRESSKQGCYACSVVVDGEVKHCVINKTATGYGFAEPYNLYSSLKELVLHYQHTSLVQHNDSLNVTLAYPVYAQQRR
assayDetails: PI3Kα enzyme assay (ADP-Glo)
Type: biochemical
runConditions: read-out: PI3Kα enzyme inhibitory activity
pIC50: −log10 of the molar value.
Form field: pIC50 (one value per entry).

Completed entries (count: 6):
- molecule: "COC1CN(CCCn2cc(-c3cnc4ccc(Nc5cc(C(C)C)cnn5)nc4c3)cn2)C1"
  system: "human PI3Kα protein (Homo sapiens, UniProt P42336)"
  pIC50: "> 6.00"
- molecule: "CC(C)c1cnnc(Nc2ccc3ncc(-c4ccncc4)cc3n2)c1"
  system: "human PI3Kα protein (Homo sapiens, UniProt P42336)"
  pIC50: "> 6.00"
- molecule: "CC(C)OC1CN(c2cnc3ccc(Nc4cc(C(C)C)cnn4)nc3c2)C1"
  system: "human PI3Kα protein (Homo sapiens, UniProt P42336)"
  pIC50: "5.00 to 6.00"
- molecule: "CC(C)c1cnnc(Nc2ccc3ncc(-n4cnc(CCNC(=O)OC(C)(C)C)c4)cc3n2)c1"
  system: "human PI3Kα protein (Homo sapiens, UniProt P42336)"
  pIC50: "5.00 to 6.00"
- molecule: "CC(C)c1cnnc(Nc2ccc3ncc(-c4cn(C)nc4Oc4ccccc4)cc3n2)c1"
  system: "human PI3Kα protein (Homo sapiens, UniProt P42336)"
  pIC50: "> 6.00"
- molecule: "CC(C)c1cnnc(Nc2ccc3ncc(N4CCC(=O)N(C)CC4)cc3n2)c1"
  system: "human PI3Kα protein (Homo sapiens, UniProt P42336)"
  pIC50: "> 6.00"

Incoming: Entry "CN1CCC(n2cc(-c3cnc4ccc(Nc5nnc(C6CCCC6)s5)nc4c3)cn2)CC1" : reported pIC50 = ?
Outgoing: > 6.00

Incoming: Similarly, "Cn1cc(-c2cnc3ccc(Nc4cc(C(C)(C)C)on4)nc3c2)cn1" ?
Outgoing: 4.30 to 5.00

Incoming: Similarly, "CC(C)c1cnnc(Nc2ccc3nccc(-c4ccncc4)c3n2)c1" ?
Outgoing: > 6.00

Incoming: Similarly, "c1nc2ccc(Nc3nnc([C@@H]4CCCO4)s3)nc2cc1-c1cnn(CCCN2CCCC2)c1" ?
Outgoing: > 6.00

Incoming: Similarly, "CC(C)c1cnnc(Nc2ccc3ncc(-c4cnn(CC5CCN(C)CC5)c4)cc3n2)c1" ?
Outgoing: > 6.00

Incoming: Similarly, CC(=O)N1CCCC1c1nnc(Nc2ccc3ncc(-c4cnn(C)c4)cc3n2)s1 (stereo not drawn) ?
Outgoing: 5.00 to 6.00

Incoming: Similarly, "CC(C)c1cnnc(Nc2ccc3ncc(-c4cn(C)nc4-c4cncs4)cc3n2)c1" ?
Outgoing: > 6.00

Incoming: Similarly, "COC1(C)CN(CCCn2cc(-c3cnc4ccc(Nc5cc(C(C)C)cnn5)nc4c3)cn2)C1" ?
Outgoing: > 6.00

Incoming: Similarly, "CC(C)c1cnnc(Nc2ccc3ncc(-c4cn(C)nc4COc4cccnn4)cc3n2)c1" ?
Outgoing: > 6.00

Incoming: Similarly, "CC(C)c1cnnc(Nc2ccc3ncc(-c4cnn(CCCN5CC[C@@H](F)C5)c4)cc3n2)c1" ?
Outgoing: > 6.00

Incoming: Similarly, "CC(C)c1cnnc(Nc2ccc3ncc(N4CCOC[C@@H]4C)cc3n2)c1" ?
Outgoing: > 6.00

Incoming: Similarly, "Cc1cc(-c2nn(C)cc2-c2cnc3ccc(Nc4cc(C(C)C)cnn4)nc3c2)cc(C)n1" ?
Outgoing: > 6.00

Incoming: Similarly, "CC(C)c1cnnc(Nc2ccc3ncc(-c4cnn(CCCN5CCO[C@H](C)C5)c4)cc3n2)c1" ?
Outgoing: > 6.00

Incoming: Similarly, "C1=C(c2cnc3ccc(Nc4nnc(C5CCCC5)s4)nc3c2)CCOC1" ?
Outgoing: 5.00 to 6.00

Incoming: Similarly, CC(C)c1cnnc(Nc2ccc3ncc(-c4cnn(CCCN5CCOC(CO)C5)c4)cc3n2)c1 (stereo not drawn) ?
Outgoing: > 6.00

Incoming: Similarly, "CC(C)c1cnnc(Nc2ccc3ncc(-c4cnn(CC5CC5)c4)cc3n2)c1" ?
Outgoing: > 6.00

----------
system: GST fusion human ERK2 protein (Homo sapiens)
Construct: purchased Carna Biosciences, Inc; host or cells: E. coli expression system
assayDetails: ERK2 enzyme assay (1)
Format: biochemical
runConditions: ERK2 enzyme assay (1); read-out: ERK2 enzyme inhibitory activity (1)
pIC50: −log10 of the molar value.
measuredQuantity: pIC50

Completed entries (count: 5):
- molecule: "Cn1cc(-c2cnc3ccc(Nc4nnc([C@H]5CCCO5)s4)nc3c2)cn1"
  system: "GST fusion human ERK2 protein (Homo sapiens)"
  pIC50: "> 6.00"
- molecule: "OC(CN1CCCC1)Cn1cc(-c2cnc3ccc(Nc4nnc(C5CCCC5)s4)nc3c2)cn1 (stereo not drawn)"
  system: "GST fusion human ERK2 protein (Homo sapiens)"
  pIC50: "> 6.00"
- molecule: "CC(C)c1nnc(Nc2ccc3nccc(-c4cn[nH]c4)c3n2)s1"
  system: "GST fusion human ERK2 protein (Homo sapiens)"
  pIC50: "5.00 to 6.00"
- molecule: "CC(C)c1nnc(Nc2ccc3nccc(-c4cnccn4)c3n2)s1"
  system: "GST fusion human ERK2 protein (Homo sapiens)"
  pIC50: "5.00 to 6.00"
- molecule: "CC(C)c1cnnc(Nc2ccc3ncc(-c4cnn(CCCc5ccccc5)c4)cc3n2)c1"
  system: "GST fusion human ERK2 protein (Homo sapiens)"
  pIC50: "> 6.00"

Incoming: Entry "Cc1cnccc1-c1cnc2ccc(Nc3cc(C(C)C)cnn3)nc2c1" : reported pIC50 = ?
Outgoing: > 6.00

Incoming: Similarly, c1nc2ccc(Nc3nnc(C4CCOC4)s3)nc2cc1-c1cnn(CCCN2CCCC2)c1 (stereo not drawn) ?
Outgoing: > 6.00

Incoming: Similarly, "Cc1cc(Nc2ccc3ncc(-c4cnn(C)c4)cc3n2)n[nH]1" ?
Outgoing: 5.00 to 6.00

Incoming: Similarly, "Cn1cc(-c2cnc3ccc(Nc4nnc[nH]4)nc3c2)cn1" ?
Outgoing: > 6.00

Attribution: patent US9783536B2
